# Ki annotations
molecular target: human adenosine A2A receptor (Homo sapiens, UniProt P29274); construct: expressed in transfected cells; host or cells: HEK293 cells infected with BacMam; assay: Inhibition binding assay, human adenosine A2A receptor membranes, [3H]ZM241385; conditions: 1 nM [3H]ZM241385, HEK293-hA2A membranes, 25° C., 1 h; IC50 converted to Ki with Cheng-Prusoff; read-out: A2A pKi (converted)
Sequence (P29274 whole entry): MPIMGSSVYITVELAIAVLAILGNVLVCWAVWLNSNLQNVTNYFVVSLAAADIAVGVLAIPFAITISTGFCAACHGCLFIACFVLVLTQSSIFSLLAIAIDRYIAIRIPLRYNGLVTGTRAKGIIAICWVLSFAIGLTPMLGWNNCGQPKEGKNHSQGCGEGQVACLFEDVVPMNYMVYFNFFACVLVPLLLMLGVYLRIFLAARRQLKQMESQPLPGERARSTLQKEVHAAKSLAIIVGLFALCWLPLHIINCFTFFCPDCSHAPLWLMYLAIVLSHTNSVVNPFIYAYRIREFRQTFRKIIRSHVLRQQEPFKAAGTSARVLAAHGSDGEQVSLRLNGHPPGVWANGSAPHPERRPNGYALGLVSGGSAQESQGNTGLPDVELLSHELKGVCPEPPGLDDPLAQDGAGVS
Return type: number; implicit unit nM.

Looking up "Cc1cc(-c2c(-c3ccccc3)nc(N)n3c(=O)n(CCc4ccccn4)nc23)cc(C)n1" , I see its Ki listed as 5.01

In plain terms, "Cc1cc(-c2c(-c3ccccc3)nc(N)n3c(=O)n(Cc4ccc(F)cn4)nc23)cc(C)n1" has a documented Ki of 0.794

So, "Cc1cc(-c2c(-c3ccccc3)nc(N)n3c(=O)n(CC4CCOCC4)nc23)cc(C)n1" ? Its Ki was 2

"COc1cc(-c2c(-c3ccccc3)nc(N)n3c(=O)n(Cc4ccc(C)cn4)nc23)cc(CO)n1" yielded Ki of 0.631

What the record says about "Cc1cc(-c2c(-c3ccccc3)nc(N)n3c(=O)n(Cc4ccc(F)cn4)nc23)cc(CO)n1" : Ki is 1.58

Ki in this record for "Cc1cc(-c2c(-c3ccccc3)nc(N)n3c(=O)n(C[C@H]4CNCCN4C)nc23)cc(C)n1" : 25.1

Notebook: "Cc1cc(-c2c(-c3ccccc3)nc(N)n3c(=O)n(CCN(C)CC(=O)N4CCC(O)CC4)nc23)cc(C)n1" , Ki read as 63.1

----------
Below, each entry is listed with its recorded Ki.
target: human adenosine A2A receptor (Homo sapiens); construct: expressed in transfected cells; host or cells: HEK293 cells infected with BacMam; test: Inhibition binding assay, human adenosine A2A receptor membranes, [3H]ZM241385; conditions: 1 nM [3H]ZM241385, HEK293-hA2A membranes, 25° C., 1 h; IC50 converted to Ki with Cheng-Prusoff; read-out: A2A pKi (converted)
Report the figure along with its unit, number first.

>>> result("Cc1cc(-c2c(-c3ccccc3)nc(N)n3c(=O)n(Cc4ccc(F)c(=O)n4C)nc23)cc(C)n1")
"20 nM"

Data point: "Cc1cc(-c2c(-c3ccccc3)nc(N)n3c(=O)n(CCc4ccccc4)nc23)cc(N2CCC2)n1" ; Ki = 12.6 nM

Value of Ki reported for the compound Cc1cc(-c2c(-c3ccccc3)nc(N)n3c(=O)n(C(C)c4ccccn4)nc23)cc(C)n1 (stereo not shown) is 12.6 nM

The measured Ki associated with "CNC(=O)CCn1nc2c(-c3cc(C)nc(C)c3)c(-c3ccccc3)nc(N)n2c1=O" reads 25.1 nM

----------
Reported Ki values are given for each entry in this list.
molecular target: human adenosine A1 receptor (Homo sapiens); construct: expressed in transfected cells; host or cells: HEK293 cells infected with BacMam (the same paragraph also labels the preparation CHO-hA1); assay: Inhibition binding assay, human adenosine A1 receptor membranes, [3H]DPCPX; conditions: 1 nM [3H]DPCPX, 25° C., 1 h; IC50 converted to Ki with Cheng-Prusoff; read-out: A1 pKi (converted)

A selection of reference data follows.
>>> result("Cc1cc(-c2c(-c3ccccc3)nc(N)n3c(=O)n(CCc4ccc(O)cc4)nc23)cc(C)n1 [Example 1-82]")
"251 nM"
>>> result("Cc1cc(-c2c(-c3ccccc3)nc(N)n3c(=O)n(Cc4ccc(F)cn4)nc23)cc(C(F)(F)F)n1 [Example 1-72]")
"126 nM"
>>> result("Cc1cc(-c2c(-c3ccc(F)cc3)nc(N)n3c(=O)n(CCC(F)(F)F)nc23)cc(Cl)n1 [Example 2-50]")
"79.4 nM"

Next molecule, Ki to be filled in.
Summary for this molecule, Cc1cc(-c2c(-c3ccccn3)nc(N)n3c(=O)n(CCC(F)(F)F)nc23)cc(C)n1 [Example 2-37] : Ki is > 3160 nM

----------
Biological target: human adenosine A2A receptor (Homo sapiens, UniProt P29274)
Construct: expressed in transfected cells; host or cells: HEK293 cells infected with BacMam
Assay: Inhibition binding assay, human adenosine A2A receptor membranes, [3H]ZM241385
Details: 1 nM [3H]ZM241385, HEK293-hA2A membranes, 25° C., 1 h; IC50 converted to Ki with Cheng-Prusoff; read-out: A2A pKi (converted)
Protocol: Inhibition binding assays were performed using 0.2 μg of membranes prepared from HEK293 cells infected with BacMam human adenosine A2A receptor or 1.4 μg of membranes prepared from HEK293 cells infected with BacMam human adenosine A1 receptor. […] Bound radioactivity was determined by liquid scintillation counting and inhibition curves were analysed using a four-parameter logistic equation. […]
MEASUREMENT_KIND: Ki (nM)
// return numeric value only (unit: nM, not printed)

>>> readout_number("Cc1cc(-c2c(-c3ccccc3)nc(N)n3c(=O)n(C[C@H]4CN(C)CCO4)nc23)cc(C)n1 [Example 2-74]")
15.8
>>> readout_number("Cc1cc(-c2c(-c3ccccc3)nc(N)n3c(=O)n(CCN(C)C4(CO)CCc5ccccc5C4)nc23)cc(C)n1 (stereo not shown) [Example 1-99]")
39.8
>>> readout_number("Cc1cc(-c2c(-c3ccccc3)nc(N)n3c(=O)n(CCN[C@@H](C)c4cccc(C)n4)nc23)cc(C)n1 [Example 1-94]")
10

Shifting focus to the compound that follows.
The recorded Ki for entry Cc1cc(-c2c(-c3ccc(F)cc3)nc(N)n3c(=O)n(Cc4cccnn4)nc23)cc(C)n1 [Example 1-41] equals 2.51

----------
target: human adenosine A1 receptor (Homo sapiens); construct: expressed in transfected cells; host or cells: HEK293 cells infected with BacMam (the same paragraph also labels the preparation CHO-hA1); test: Inhibition binding assay, human adenosine A1 receptor membranes, [3H]DPCPX; conditions: 1 nM [3H]DPCPX, 25° C., 1 h; IC50 converted to Ki with Cheng-Prusoff; read-out: A1 pKi (converted)
MEASUREMENT_KIND: Ki
Report field: quantity (unit follows the number).

>>> result("Nc1nc(-c2ccccc2)c(-c2cc(Cl)nc(C(F)(F)F)c2)c2nn(Cc3ccc(F)cn3)c(=O)n12 [Example 1-79]")
"0.251 µM"
>>> result("COc1ccc(Cn2nc3c(-c4cc(C)nc(Cl)c4)c(-c4ccccc4)nc(N)n3c2=O)nc1 [Example 1-77]")
"0.2 µM"

Record Cc1cc(-c2c(-c3ccccc3)nc(N)n3c(=O)n(Cc4cccnn4)nc23)cc(C)[n+]1[O-] [Example 1-43] . Reported Ki: 0.316 µM

The compound listed as CCC(c1ccc(F)cn1)n1nc2c(-c3cc(C)nc(C)c3)c(-c3ccccc3)nc(N)n2c1=O (racemic) [Example 1-38] has a reported Ki of 1 µM

The compound listed as Cc1cc(-c2c(-c3ccccc3)nc(N)n3c(=O)n(CC45CC(F)(C4)C5)nc23)cc(CO)n1 [Example 2-59] has a reported Ki of 0.316 µM

Noted for Cc1cc(-c2c(-c3ccccc3)nc(N)n3c(=O)n(C[C@H]4CN(C(=O)OC(C)(C)C)CCN4C)nc23)cc(C)n1 [Example 2-84] : its Ki reads 0.316 µM

Ki measured on [2H]c1c([2H])c([2H])c(-c2nc(N)n3c(=O)n(CCC(F)(F)F)nc3c2-c2cc(C)nc(C)c2)c([2H])c1[2H] [Example 2-32] = 0.398 µM

----------
Target: human adenosine A1 receptor (Homo sapiens, UniProt P30542)
Construct: expressed in transfected cells; host or cells: HEK293 cells infected with BacMam (the same paragraph also labels the preparation CHO-hA1)
Sequence (P30542 1-326): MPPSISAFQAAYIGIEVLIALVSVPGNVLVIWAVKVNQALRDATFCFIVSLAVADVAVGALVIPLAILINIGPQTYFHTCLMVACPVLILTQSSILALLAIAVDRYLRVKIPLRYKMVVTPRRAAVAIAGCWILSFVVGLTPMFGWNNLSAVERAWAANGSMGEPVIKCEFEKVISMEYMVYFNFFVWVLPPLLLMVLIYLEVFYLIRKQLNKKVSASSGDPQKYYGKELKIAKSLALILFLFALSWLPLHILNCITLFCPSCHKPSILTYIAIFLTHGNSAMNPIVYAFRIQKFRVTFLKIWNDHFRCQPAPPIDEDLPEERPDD
Assay: Inhibition binding assay, human adenosine A1 receptor membranes, [3H]DPCPX
Conditions: 1 nM [3H]DPCPX, 25° C., 1 h; IC50 converted to Ki with Cheng-Prusoff; read-out: A1 pKi (converted)
In this section we review reported Ki values for a set of molecules.
// units = nM; emit number, no label

>>> readout_number("Cc1cc(-c2c(-c3ccccc3)nc(N)n3c(=O)n(CC4CCCS(=O)(=O)C4)nc23)cc(C)n1 (single isomer, unassigned) [Example 2-89-iso-1]")
398
>>> readout_number("Cc1cc(-c2c(-c3ccccc3)nc(N)n3c(=O)n(CCC(F)(F)F)nc23)cc(C)[n+]1[O-] [Example 2-56]")
316
>>> readout_number("COc1cc(C)nc(Cn2nc3c(-c4cc(C)nc(C)c4)c(-c4ccccc4)nc(N)n3c2=O)c1 [Example 1-29]")
12.6
>>> readout_number("Cc1cc(-c2c(-c3ccccc3)nc(N)n3c(=O)n(Cc4ccc(O)cc4)nc23)cc(C)n1 [Example 1-4]")
501

Now take the following molecule into account.
The molecule Cc1cc(-c2c(-c3ccccc3)nc(N)n3c(=O)n(C[C@H]4COCCN4C)nc23)cc(C)n1 [Example 2-77] , tested on human adenosine A1 receptor (Homo sapiens, UniProt P30542), showed Ki of 398
